experimental_system: porcine pancreatic elastase (Sus scrofa)
Sequence (P00772 27-266): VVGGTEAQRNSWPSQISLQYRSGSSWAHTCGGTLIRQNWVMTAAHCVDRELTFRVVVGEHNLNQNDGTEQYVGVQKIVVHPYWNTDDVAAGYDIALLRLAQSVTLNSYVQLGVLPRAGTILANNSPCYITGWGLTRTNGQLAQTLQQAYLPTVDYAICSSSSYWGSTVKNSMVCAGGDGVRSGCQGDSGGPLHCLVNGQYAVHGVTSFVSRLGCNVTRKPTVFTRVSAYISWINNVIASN
assay_explanation: Elastase inhibitory activity of peptides (AAApNA hydrolysis; IC50, Ki, residual activity)
Format: biochemical
conditions: peptide 10 μM; elastase 0.5 μM, AAApNA 1 mM
Bridge positions count the residues as written; N and C are the ends. Peptide text beside a SMILES is read from it.
quantity: Residual activity of elastase (%)
API: value field is a number in %; no unit string.

In the examples that follow, each entry is paired with its recorded Residual activity of elastase.
compound	experimental_system	quantity	test_value
CC[C@H](C)[C@@H]1NC(=O)[C@@H]2CCCN2C(=O)[C@@H]2CCCN2C(=O)[C@H]([C@@H](C)CC)NC(=O)[C@H](CO)NC(=O)[C@H](C)NC(=O)[C@H]([C@@H](C)O)NC(=O)[C@@H](NC(=O)[C@@H](N)CC(C)C)CSSC[C@@H](C(=O)N[C@@H](CCC(N)=O)C(=O)O)NC1=O [EC12] (H-LCTASIPPICQ-OH; disulfide 2-10; N-terminus and C-terminus assumed)	porcine pancreatic elastase (Sus scrofa)	Residual activity of elastase	1.3
CC[C@H](C)[C@@H]1NC(=O)[C@@H]2CCCN2C(=O)[C@@H]2CCCN2C(=O)[C@H]([C@@H](C)CC)NC(=O)[C@H](CO)NC(=O)[C@H](C)NC(=O)[C@H]([C@@H](C)O)NC(=O)[C@@H](NC(=O)[C@@H](N)Cc2ccc(O)cc2)CSSC[C@@H](C(=O)N[C@@H](CCC(N)=O)C(=O)O)NC1=O [EC29] (H-YCTASIPPICQ-OH; disulfide 2-10; C-terminus assumed)	porcine pancreatic elastase (Sus scrofa)	Residual activity of elastase	5.9

Query: Looking for the measured Residual activity of elastase of CC[C@H](C)[C@H](N)C(=O)N[C@H]1CSSC[C@@H](C(=O)N[C@@H](CCC(N)=O)C(=O)O)NC(=O)[C@H]([C@@H](C)CC)NC(=O)[C@@H]2CCCN2C(=O)[C@@H]2CCCN2C(=O)[C@H]([C@@H](C)CC)NC(=O)[C@H](CO)NC(=O)[C@H](C)NC(=O)[C@H]([C@@H](C)O)NC1=O [EC23] (H-ICTASIPPICQ-OH; disulfide 2-10; C-terminus assumed) , can you help?
Reply: 1.5

* * *

experimental_system: α-chymotrypsin (Bos taurus)
assay_explanation: Chymotrypsin inhibitory activity of peptides (AAPFpNA hydrolysis; IC50, Ki, residual activity)
Assay type: biochemical
conditions: peptide 10 μM
Bridge positions count the residues as written; N and C are the ends. Peptide text beside a SMILES is read from it.
quantity: Residual activity of chymotrypsin (%)
API: value field is a number in %; no unit string.

compound	experimental_system	Residual activity of chymotrypsin, %
CC[C@H](C)[C@@H]1NC(=O)[C@H](CO)NC(=O)[C@H](Cc2ccc(O)cc2)NC(=O)[C@H]([C@@H](C)O)NC(=O)[C@@H](NC(=O)[C@@H](N)CO)CSSC[C@@H](C(=O)N[C@@H](Cc2ccc(O)cc2)C(=O)NCC(=O)O)NC(=O)[C@H](CCC(N)=O)NC(=O)[C@@H]2CCCN2C(=O)[C@@H]2CCCN2C1=O [CH4] (H-SCTYSIPPQCYG-OH; disulfide 2-10; N-terminus and C-terminus assumed)	α-chymotrypsin (Bos taurus)	9.3

Consider the additional compound presented here.
Query: Request body: readout Residual activity of chymotrypsin, system α-chymotrypsin (Bos taurus), query CC[C@H](C)[C@@H]1NC(=O)[C@H](CO)NC(=O)[C@H](Cc2ccccc2)NC(=O)[C@H]([C@@H](C)O)NC(=O)[C@@H](NC(=O)[C@@H](N)CC(C)C)CSSC[C@@H](C(=O)N[C@@H](Cc2ccc(O)cc2)C(=O)NCC(=O)O)NC(=O)[C@H](CCC(N)=O)NC(=O)[C@@H]2CCCN2C(=O)[C@@H]2CCCN2C1=O [CH1] (H-LCTFSIPPQCYG-OH; disulfide 2-10; N-terminus and C-terminus assumed) . Return the value.
Reply: 10.6

Origin of the recorded values: patent US20230416329A1
